target: DDR2; assay: DDR2 LanthaScreen Europium Kinase Binding assay; conditions: 5 nM DDR2, 1 hour at room temperature, Ki from IC50 by Cheng-Prusoff, read-out: Ki DDR2
pKi: −log10 of the molar value.
This section presents compounds with their documented pKi values.

# Compound, Quantity measured, Measured
rows = [
    ("CN(C)CCn1cc(Nc2ncc(CN3CCc4ccc(C(=O)Nc5cc(CN6CCN(C)CC6)cc(C(F)(F)F)c5)cc43)cn2)cn1 [Example 20]", "pKi", "> 7.60"),
    ("CNc1ncc(CN2CCc3ccc(C(=O)Nc4ccc(CN5CCN(C)CC5)c(C(F)(F)F)c4)cc32)cn1 [Example 12]", "pKi", "7.30 to 7.60"),
    ("CN1CCN(Cc2ccc(NC(=O)c3ccc4c(c3)N(Cc3ccc(N)nc3)CC4)cc2C(F)(F)F)CC1 [Example 9]", "pKi", "7.30 to 7.60"),
    ("CN1CCN(Cc2cc(NC(=O)c3ccc4c(c3)N(Cc3cncnc3)CC4)cc(C(F)(F)F)c2)CC1 [Example 3]", "pKi", "> 7.60"),
    ("CC(=O)Nc1ccc(CN2CCc3ccc(C(=O)Nc4ccc(CN5CCN(C)CC5)c(C(F)(F)F)c4)cc32)cn1 [Example 13]", "pKi", "7.30 to 7.60"),
    ("CN1CCN(c2cncc(CN3CCc4ccc(C(=O)Nc5cccc(C(F)(F)F)c5)cc43)c2)CC1=O [Example 7]", "pKi", "> 7.60"),
]

Q: Given CN1CCN(Cc2ccc(NC(=O)c3ccc4c(c3)N(Cc3cnc(N)cn3)CC4)cc2C(F)(F)F)CC1 [Example 11] , respond with its pKi.
A: > 7.60

Q: Given Cc1cn(-c2cc(NC(=O)c3ccc4c(c3)N(Cc3cncnc3)CC4)cc(C(F)(F)F)c2)cn1 [Example 1] , respond with its pKi.
A: > 7.60

Q: Given CN1CCN(Cc2ccc(NC(=O)c3ccc4c(c3)N(Cc3cnc(N)nc3)CC4)cc2C(F)(F)F)CC1 [Example 8] , respond with its pKi.
A: 7.30 to 7.60

Q: Given CN1CCN(Cc2cc(C(=O)Nc3ccc4c(c3)N(Cc3cnc(N)nc3)CC4)cc(C(F)(F)F)c2)CC1 [Example 21] , respond with its pKi.
A: > 7.60

---

molecular target: DDR1; experiment: DDR1 LanthaScreen Europium Kinase Binding assay; details: read-out: DDR1 Ki
This section presents molecules with their documented Ki values.
Report only the number, with the unit µM understood.

# Molecule, Measured
data = [
    ("Cc1cn(-c2cc(NC(=O)c3ccc4c(c3)N(c3cncnc3)CC4)cc(C(F)(F)F)c2)cn1 [Example C2, reference compound]", 58),
    ("CN1CCN(Cc2cc(C(=O)Nc3ccc4c(c3)N(c3cncnc3)CC4)cc(C(F)(F)F)c2)CC1 [Example C3, reference compound]", 58),
]

Shifting focus to the molecule that follows.
Q: Given CN1CCN(Cc2cc(NC(=O)c3ccc4c(c3)N(c3cncnc3)CC4)cc(C(F)(F)F)c2)CC1 [Example C1, reference compound] , respond with its Ki.
A: 30

---

This section presents compounds with their documented pIC50 values.
system: DDR2; assay: DDR2 cell based assay (phospho-ELISA in HEK293T-DDR2 cells); parameters: species or system human; settings: DDR2 phosphorylation, bovine Type II Collagen 50 μg/ml, read-out: IC50DDR2
pIC50: −log10 of the molar value.

Look over these answered cases.
# Compound, Measured
rows = [
    ("COCCn1cc(Nc2ncc(CN3CCc4ccc(C(=O)Nc5cccc(C(F)(F)F)c5)cc43)cn2)cn1 [Example 16]", "> 7.60"),
    ("CN1CCN(Cc2cc(C(=O)Nc3ccc4c(c3)N(Cc3cnc(Nc5cnn(C)c5)nc3)CC4)cc(C(F)(F)F)c2)CC1 [Example 4]", "> 7.60"),
    ("CN1CCN(Cc2cc(NC(=O)c3ccc4c(c3)N(Cc3cnc(Nc5cnn(C)c5)nc3)CC4)cc(C(F)(F)F)c2)CC1 [Example 18]", "> 7.60"),
    ("CC(=O)Nc1ccc(CN2CCc3ccc(C(=O)Nc4ccc(CN5CCN(C)CC5)c(C(F)(F)F)c4)cc32)cn1 [Example 13]", "7.10 to 7.30"),
    ("CN1CCN(Cc2cc(C(=O)Nc3ccc4c(c3)N(Cc3nccnc3N)CC4)cc(C(F)(F)F)c2)CC1 [Example 5]", "7.30 to 7.60"),
]

Q: Given CNc1ccc(CN2CCc3ccc(C(=O)Nc4ccc(CN5CCN(C)CC5)c(C(F)(F)F)c4)cc32)cn1 [Example 14] , respond with its pIC50.
A: 7.10 to 7.30
